Let's look at some variants and their measured abundance fitness.
B1: Max-interacting protein 1, residues 70 to 120; numbered along this chain, P50539 (parent)
chain: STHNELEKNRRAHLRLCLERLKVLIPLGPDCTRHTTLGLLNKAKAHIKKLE

- Variants of: B1
- ASSAY INFO: abundance fitness (aPCA) (normalised: wild type 0, dead -1); higher = more abundant; growth selection in yeast, the domain comes from the species named
- MEASUREMENT CONTEXT: Homo sapiens

VARIANT STRING: C17P
abundance fitness: -0.232
//
VARIANT STRING: K49C
abundance fitness: -0.62
//
VARIANT STRING: E5F
abundance fitness: -0.514
//
VARIANT STRING: R33C
abundance fitness: -0.365
//
VARIANT STRING: T2Y
abundance fitness: -0.088
//
VARIANT STRING: T2N
abundance fitness: 0.128
//
VARIANT STRING: C31D
abundance fitness: -0.136
//
VARIANT STRING: K22M
abundance fitness: -0.753
//
VARIANT STRING: D30I
abundance fitness: 0.151
//
VARIANT STRING: A43Q
abundance fitness: -0.74
//
VARIANT STRING: L24D
abundance fitness: -1
//
VARIANT STRING: C31S
abundance fitness: 0.168
//
VARIANT STRING: T2S
abundance fitness: -0.414
//
VARIANT STRING: L27V
abundance fitness: -0.009
//
VARIANT STRING: L6R
abundance fitness: 0.172
//
VARIANT STRING: D30M
abundance fitness: 0.118
//
VARIANT STRING: R33E
abundance fitness: -0.667
//
VARIANT STRING: D30T
abundance fitness: 0.128
//
VARIANT STRING: T35W
abundance fitness: 0.189
//
VARIANT STRING: E5Q
abundance fitness: -0.193
